# target_of_assay: Heat shock protein HSP 90-alpha (Homo sapiens, UniProt P07900)
# Format: functional, organism-based
Calls of active or inactive are those of the source.
assay_metric: AC50

{"molecule": "Oc1c(Br)cc(Br)cc1/C=N\\c1cccnc1", "target_of_assay": "Heat shock protein HSP 90-alpha (Homo sapiens, UniProt P07900)", "assay_metric": "AC50", "meas_value": "3.09 µM (active)"}
{"molecule": "CC1(C)CC[C@]2(C(=O)O)CC[C@]3(C)C(=CC[C@@H]4[C@@]5(C)CC[C@H](O[C@@H]6O[C@H](C(=O)O)[C@@H](O)[C@H](O[C@@H]7OC[C@H](O)[C@H](O)[C@H]7O)[C@H]6O)C(C)(C)[C@@H]5CC[C@]43C)[C@@H]2C1", "target_of_assay": "Heat shock protein HSP 90-alpha (Homo sapiens, UniProt P07900)", "assay_metric": "AC50", "meas_value": "0.649 µM (active)"}
{"molecule": "Cc1cc(NC(c2ccc(Cl)cc2)c2ccc3cccnc3c2O)no1 (configuration not stated)", "target_of_assay": "Heat shock protein HSP 90-alpha (Homo sapiens, UniProt P07900)", "assay_metric": "AC50", "meas_value": "3.87 µM (active)"}
{"molecule": "O=C(C#Cc1ccccc1)c1cccc([N+](=O)[O-])c1", "target_of_assay": "Heat shock protein HSP 90-alpha (Homo sapiens, UniProt P07900)", "assay_metric": "AC50", "meas_value": "0.75 µM (active)"}
{"molecule": "O=[N+]([O-])/C=C/c1ccc2c(ccn2Cc2ccccc2)c1", "target_of_assay": "Heat shock protein HSP 90-alpha (Homo sapiens, UniProt P07900)", "assay_metric": "AC50", "meas_value": "3.42 µM (active)"}
{"molecule": "CC(=NNC(=S)N1CC2CCC(CC2)C1)c1cnccn1", "target_of_assay": "Heat shock protein HSP 90-alpha (Homo sapiens, UniProt P07900)", "assay_metric": "AC50", "meas_value": "4.43 µM (active)"}
{"molecule": "COc1ccc(N=Nc2ccc(O)c3ncccc23)cc1", "target_of_assay": "Heat shock protein HSP 90-alpha (Homo sapiens, UniProt P07900)", "assay_metric": "AC50", "meas_value": "3.34 µM (active)"}
